Tested on: SF-268 CNS
assay.explanation: NCI-60 one-dose screen, 48 h (100 = growth as untreated, 0 = no growth, -100 = all killed)
condition.notes: 10 µM unless noted
Protocol: Cells are grown in 96 well plates and exposed to the test compound for 48 hours. Compounds are tested at a single concentration, which is 10^-5 M for most compounds. The reported endpoint is percent growth (GI% or GIPRCNT), where numbers from 0 - 100% represent growth inhibition, and numbers from -100% - 0 represent cell death. For example, a value of 40 represents 60% growth inhibition. A value of 0 means no net growth occurred over the course of the experiment. […]
This is part of a sample that, as a whole, favours compounds with a hit. Of some 83,000 tested, about 20% had one in any assay.
Param label: returns fulfilled when growth < 60%, returns not fulfilled otherwise, including exact equality.

In the record for S=c1[nH]nc(Cn2c3ccccc3c3ccncc32)o1 , is growth less than 60%?
not fulfilled

I'd appreciate it if you could check whether COC1=C(OC)C(=O)C=CC1=O has growth smaller than 60%.
not fulfilled

###

Test system: SK-MEL-2 melanoma
assay.explanation: NCI-60 one-dose screen, 48 h (100 = growth as untreated, 0 = no growth, -100 = all killed)
condition.notes: 10 µM unless noted
The panel holds about 83,000 compounds, 20% with a hit somewhere; the sample as a whole holds those more often.
We begin with a simple list: items and their reported growth.
Could you give me the number in %? Just the number is fine.

- compound: "C=CC(=O)Nc1cccc(Nc2nc(Nc3ccc(OCCOC(F)F)cc3)ncc2F)c1"
  growth (%): 0.225
- compound: "CC(=O)Oc1ccc(C(OC(C)=O)OC(C)=O)cc1"
  growth (%): 104
- compound: "COc1cc(Br)c(-c2nc(-c3ccccc3)c(-c3ccccc3)n2Cc2ccccc2)cc1OC"
  growth (%): 44.8

What measured growth goes with COc1cc2ncn3c(=O)c4c5c(sc4nc3c2cc1OC)CCCCC5 ?
113

Name the reported growth value associated with the compound COc1cccc(/C=N/C(=S)NC2(C)C3CCC(C3)C2(C)C)c1O (centres undefined)
82.1

I am curious: what growth value has been reported for CC(=O)O[C@@H]1[C@@H](OC(C)=O)[C@H](OC(C)=O)CO[C@H]1Nc1cccc2ccccc12 ?
82.3

###

Test system: IGROV1 ovarian
assay.explanation: NCI-60 one-dose screen, 48 h (100 = growth as untreated, 0 = no growth, -100 = all killed)
condition.notes: 10 µM unless noted
About 83,000 compounds went through this panel and 20% of them were active in at least one assay; those are over-represented in the sample as a whole.
endpoint: growth (%)
Number in %, nothing else.

Solved entries (count: 2):
- line.notation: "O=C(N/N=C/c1ccccc1O)c1ccccc1O"
  readout.unit: "%"
  result.number: 24.3
- line.notation: "CN(CCNCc1ccccn1)CCNCc1ccccn1"
  readout.unit: "%"
  result.number: 26.9

# input for lookup
So what's the measured growth for this one? CCCCOc1nc2ccc(Cl)cc2cc1/C=C/C(=O)/C=C/c1ccc(OC)cc1
93.2

###

System: UACC-257 melanoma
assay.explanation: NCI-60 one-dose screen, 48 h (100 = growth as untreated, 0 = no growth, -100 = all killed)
condition.notes: 10 µM unless noted
This is part of a sample that, as a whole, favours compounds with a hit. Of some 83,000 tested, about 20% had one in any assay.
endpoint: growth (%)
The reply should contain only the number, in %.

Solved entries (count: 8):
- compound: "Nc1nc(=S)ss1"
  growth (%): 90.2
- compound: "COc1ccc(C2=NN(C(=O)COc3ccc(Cl)cc3)C(O)(c3cc(F)c(Cl)cc3Cl)C2)cc1 (centres undefined)"
  growth (%): 98.6
- compound: "CCC1(C(N)=O)CC2C=CC1CC2 (centres undefined)"
  growth (%): 77.1
- compound: "CCCCCCCCN(CCCCCCCC)CC(O)c1cc(-c2ccccc2)nc2ccc(OC)cc12 (centres undefined)"
  growth (%): 83.2
- compound: "FC(F)(F)c1cccc([Si](F)(c2cccc(C(F)(F)F)c2)c2cccc(C(F)(F)F)c2)c1"
  growth (%): 81.3
- compound: "N#Cc1c(N)nc2c(c1N)C(c1ccc(Cl)cc1)C1=C(CCCC1=O)N2c1sc2c(c1C#N)CCCC2 (centres undefined)"
  growth (%): 92.6
- compound: "O=C(CSc1nnc(-c2ccccc2)o1)Nc1ccc(C(=O)/C=C/c2ccccc2)cc1"
  growth (%): 113
- compound: "COc1ccccc1S(=O)(=O)Nc1ccc2c3c(cc(-c4cnn(C5CC5)c4)nc13)C(=O)N2C"
  growth (%): 66.2

What growth appears in the records for this compound with UACC-257 melanoma? Nc1ncnc2c1ncn2C1OC(COC(c2ccccc2)(c2ccccc2)c2ccccc2)C(O)C1O (centres undefined)
108

Given the entry O=S(=O)(Nc1cccc2cc(OS(=O)(=O)c3ccccc3)ccc12)c1ccccc1 , what growth was observed with UACC-257 melanoma?
75.6

Provide the documented growth with UACC-257 melanoma as the system for NC(=NCCCOc1ccc(F)cc1)Nc1ccc(Cl)c(Cl)c1
77.2

Which measured growth belongs to O=c1[nH]ccc2nc(N3CCC(O)CC3)nc(Nc3cccc(C(F)(F)F)c3)c12 , tested on UACC-257 melanoma?
16.3

Entry Cn1c2ccccc2c2ssc(=S)c21 , system UACC-257 melanoma: what growth was measured?
98.8

Query for UACC-257 melanoma: what growth does the record show for CCc1c2cc(Cl)ccc2n2cc(Cc3ccccc3)[nH]c(=O)c12 ?
104

Give the reported growth for NS(=O)(=O)c1ccc(CCN2C(=O)/C(=C\c3ccc(Cl)cc3)C=C2c2ccc(Oc3ccccc3)cc2)cc1 (system: UACC-257 melanoma).
92.4

Hello, the source for this data is PubChem BioAssay (NCI), in case you need it.
